- Tested on: Mycobacterium tuberculosis variant bovis BCG
- assay_protocol: Antitubercular activity against Mycobacterium bovis BCG ATCC 35743 at 30 ug/ml after 10 mins by NR assay
- Format: functional
- assay_setup: ATCC 35743, 10 min
Catalogue of compounds with associated inhibition at 30 µg/mL

{"columns": ["substance_smiles", "study_system", "inhibition at 30 µg/mL / %"],
 "data": [
  ["O=C1CSc2ccccc2N1Cc1cn(Cc2ccccc2)nn1", "Mycobacterium tuberculosis variant bovis BCG", 74.3],
  ["O=C1CSc2ccccc2N1Cc1cn(Cc2ccc(Br)cc2)nn1", "Mycobacterium tuberculosis variant bovis BCG", 43.9],
  ["O=C1CSc2ccccc2N1Cc1cn(Cc2cccc(Cl)c2)nn1", "Mycobacterium tuberculosis variant bovis BCG", 95.5],
  ["O=C1CSc2ccccc2N1Cc1cn(Cc2ccc([N+](=O)[O-])cc2)nn1", "Mycobacterium tuberculosis variant bovis BCG", 91.1],
  ["O=C1CSc2ccccc2N1Cc1cn(Cc2ccc(Cl)cc2)nn1", "Mycobacterium tuberculosis variant bovis BCG", 58.1],
  ["O=C1CSc2ccccc2N1Cc1cn(-c2ccc([N+](=O)[O-])cc2)nn1", "Mycobacterium tuberculosis variant bovis BCG", 33.1],
  ["O=C1CSc2ccccc2N1Cc1cn(Cc2cccc([N+](=O)[O-])c2)nn1", "Mycobacterium tuberculosis variant bovis BCG", 88.5],
  ["O=C1CSc2ccccc2N1Cc1cn(Cc2ccc(F)cc2)nn1", "Mycobacterium tuberculosis variant bovis BCG", 95.3],
  ["O=C1CSc2ccccc2N1Cc1cn(-c2cccc([N+](=O)[O-])c2)nn1", "Mycobacterium tuberculosis variant bovis BCG", 26.6],
  ["O=C1CSc2ccccc2N1Cc1cn(Cc2ccccc2Cl)nn1", "Mycobacterium tuberculosis variant bovis BCG", 58]
]}
